Each recorded value in this set is attributed to PubChem BioAssay AID1974.

Measured inhibition, listed per entry.
Biological target: Glutathione S-transferase omega-1 (Homo sapiens) (UniProt P78417)
Sequence (P78417 whole entry, looked up): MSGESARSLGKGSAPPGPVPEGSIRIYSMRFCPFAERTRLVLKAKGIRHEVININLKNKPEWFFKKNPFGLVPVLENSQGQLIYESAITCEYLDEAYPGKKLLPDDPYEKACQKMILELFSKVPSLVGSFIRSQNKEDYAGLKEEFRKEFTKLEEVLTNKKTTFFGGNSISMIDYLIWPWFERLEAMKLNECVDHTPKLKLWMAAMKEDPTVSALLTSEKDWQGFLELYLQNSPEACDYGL
Assay: inhibitors of recombinant GSTO1, primary screen, counter-screen for RBBP9 inhibitor project, biochemical, fluorescence polarization (AID 1974);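 note: 0% = GSTO1-1 with DMSO and 100% = wells lacking GSTO1-1 enzyme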
Details: recombinant GSTO1, activity-based probe fluorescence polarization; at 5.96 µM; active compounds read high
Out of some 300,000 compounds screened, about 3,200 (1.1%) were called active. The list comes from a sample in which actives are over-represented; it also holds close analogues and randomly drawn compounds.
Use % as the unit, but write only the number.

Worked cases, inhibition given:
CNC(=S)NNC(=O)c1oc2nc(-c3ccccc3)cc(-c3ccco3)c2c1N
3.57
CN(C)c1ccc(S(=O)(=O)NCC(=O)NCC2CCCCC2)cc1[N+](=O)[O-]
-5.25
O=C(Nc1cccc(F)c1)c1cc(-c2ccco2)nc2ccccc12
-14.9
CC(C)(C)C(=O)OCc1nc(-c2ccc(O)c(O)c2)cs1
37.1
Cc1onc(C(=O)NN)c1-c1csc(COc2ccccc2)n1
10.4

[ask] For the compound shown here, COc1ccc(NS(=O)(=O)c2ccc(O)c(C(=O)OCC(=O)NC3CCCCC3)c2)cc1 , give the reported inhibition.
[reply] -9.76

[ask] For the compound shown here, O=c1c(/C=N/O)coc2ccc(Cl)cc12 , give the reported inhibition.
[reply] 38.5

[ask] For the compound shown here, CCOC(=O)N1CCN(C(=O)COc2ccc3oc4c(c3c2)CCCC4)CC1 , give the reported inhibition.
[reply] -0.52

[ask] For the compound shown here, O=C(Nc1ccc(S(=O)(=O)N2CCCCC2)cc1)C1CCN(C(=O)c2ccc(F)cc2)CC1 , give the reported inhibition.
[reply] -4.69

[ask] For the compound shown here, CC1CCN(C(=O)COC(=O)c2cc(S(=O)(=O)N3CCOCC3)ccc2Cl)CC1 , give the reported inhibition.
[reply] -3.67

[ask] For the compound shown here, Cc1cccc(C(=O)NCCCN(C)CCCNC(=O)c2cccc(C)c2)c1 , give the reported inhibition.
[reply] -1.1

[ask] For the compound shown here, CCN(C(=O)COC(=O)c1cc(NS(=O)(=O)c2ccc(Cl)c([N+](=O)[O-])c2)ccc1O)C1CCCCC1 , give the reported inhibition.
[reply] 38.5

[ask] For the compound shown here, O=C(Nc1cc(S(=O)(=O)N2CCOCC2)ccc1OCC(F)(F)F)c1ccc(N2CCCC2=O)cc1 , give the reported inhibition.
[reply] 6.19

[ask] For the compound shown here, CC(C)(C)C(=O)COC(=O)c1cc(S(=O)(=O)N2CCCCC2)ccc1N1CCOCC1 , give the reported inhibition.
[reply] -0.05

[ask] For the compound shown here, CCOC(=O)N1CCC(NC(=O)CCc2ccccc2)CC1 , give the reported inhibition.
[reply] -0.86

[ask] For the compound shown here, O=C(OCC(=O)N1CCCC1=O)c1cc(S(=O)(=O)N2CCOCC2)ccc1Cl , give the reported inhibition.
[reply] 82

[ask] For the compound shown here, COc1ccc(NC(=O)CCC(=O)N2CCN(S(=O)(=O)c3ccc(C)cc3)CC2)c(OC)c1 , give the reported inhibition.
[reply] -6.89

[ask] For the compound shown here, NC(=S)N/N=C/c1coc2cc(Cl)ccc2c1=O , give the reported inhibition.
[reply] 0.72

----------
Target: Glutathione S-transferase omega-1 (Homo sapiens)
Test: inhibitors of recombinant GSTO1, primary screen, counter-screen for RBBP9 inhibitor project, biochemical, fluorescence polarization (AID 1974);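 note: 0% = GSTO1-1 with DMSO and 100% = wells lacking GSTO1-1 enzyme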
Settings: recombinant GSTO1, activity-based probe fluorescence polarization; at 5.96 µM; active compounds read high
Hit rate of the full screen: of about 300,000 compounds, about 3,200 (1.1%) were called active. Many of the other results were omitted from the sample, so actives are more common in it than they were.
measured_parameter: inhibition (%)
Use % as the unit, but write only the number.

Worked cases, inhibition given:
COc1ccc(-c2cnc(SCCNC(=O)c3ccc4c(c3)OCO4)[nH]2)cc1
-3.18
COc1ccc(CCNC(=O)COC(=O)C2CCCCC2)cc1
3.87
OCC[C@H]1C[C@@H](O)[C@H](O)[C@@]2(OCCc3ccccc32)O1
7.38
CSc1nsc(NC(=O)Nc2ccccc2)n1
-11
COc1cccc(NC(=O)CSc2nnc(-c3cccnc3)o2)c1
-6.7

[ask] For the molecule shown here, O=C(N/N=C/c1c[nH]c2ccccc12)c1ccccc1O , give the reported inhibition.
[reply] -1.35

[ask] For the molecule shown here, CCCn1c(C)cc(-c2csc(NC(=O)CCc3nc4ccccc4c(=O)[nH]3)n2)c1C , give the reported inhibition.
[reply] -4.01

----------
Measured inhibition, listed per entry.
Target: Glutathione S-transferase omega-1 (Homo sapiens)
Test: inhibitors of recombinant GSTO1, primary screen, counter-screen for RBBP9 inhibitor project, biochemical, fluorescence polarization (AID 1974);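 note: 0% = GSTO1-1 with DMSO and 100% = wells lacking GSTO1-1 enzyme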
Conditions: recombinant GSTO1, activity-based probe fluorescence polarization; at 5.96 µM; active compounds read high
The campaign covered roughly 300,000 compounds. About 3,200 (1.1%) were called active. The entries come from a sample that favours actives as a whole.
Use % as the unit, but write only the number.

Worked cases, inhibition given:
Cc1nc2ccccc2c(=O)n1-c1ccc(F)c(NC(=O)c2cccs2)c1
-6.66
CCCc1nc2ccccc2c(=O)n1NC(=O)c1c(O)c2ccccc2[nH]c1=O
5.47
O=C(OCC1O[C@@H](OC(=O)c2cc(O)c(O)c(O)c2)[C@@H](OC(=O)c2cc(O)c(O)c(O)c2)[C@@H](OC(=O)c2cc(O)c(O)c(O)c2)[C@@H]1OC(=O)c1cc(O)c(O)c(O)c1)c1cc(O)c(O)c(O)c1 (stereo partly drawn)
43.9
CCn1cc(C(=O)NC2CCCCCC2)c(=O)c2cc(S(=O)(=O)N3CCCCC3)ccc21
0.56
COc1ccc2c(c1)[C@H]1[C@H](CO2)[C@H](c2ccccc2)[C@]2(C)C(=O)Nc3cc(F)c(F)cc3C(=O)N12
-3.75
CC(=O)CC[C@@H](C)O[C@@H]1OC(C)[C@H](O)CC1O (stereo partly drawn)
-1.35
O=[N+]([O-])c1ncc(Br)cc1Nc1ccccc1
13.4

Below: the item to evaluate.
[ask] Please state recorded inhibition (tested on Glutathione S-transferase omega-1 (Homo sapiens)) of O=C(OCC1OC(Oc2ccc(O)cc2)C(O)C(O)C1O)c1ccccc1 (stereo not drawn)
[reply] -6.08

----------
Biological target: Glutathione S-transferase omega-1 (Homo sapiens) (UniProt P78417)
Test: inhibitors of recombinant GSTO1, primary screen, counter-screen for RBBP9 inhibitor project, biochemical, fluorescence polarization (AID 1974);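 note: 0% = GSTO1-1 with DMSO and 100% = wells lacking GSTO1-1 enzyme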
Details: recombinant GSTO1, activity-based probe fluorescence polarization; at 5.96 µM; active compounds read high
Hit rate of the full screen: of about 300,000 compounds, about 3,200 (1.1%) were called active. The list comes from a sample in which actives are over-represented; it also holds close analogues and randomly drawn compounds.
measured_parameter: inhibition (%)
Use % as the unit, but write only the number.

[ask] For the compound shown here, CCOc1ccc(/C=C/C(=O)OCC(=O)c2ccccc2OC)cc1OC , give the reported inhibition.
[reply] -2.58

[ask] For the compound shown here, CSc1ccc(NC(=O)/C=C/C(=O)O)cc1 , give the reported inhibition.
[reply] 0.81

[ask] For the compound shown here, COc1ccc(NC(=O)CN(C)C(=O)c2cccc(S(=O)(=O)N3CCN(c4ccccc4)CC3)c2)cc1 , give the reported inhibition.
[reply] 0.96

[ask] For the compound shown here, Cc1ccccc1NCC(=O)N/N=C\c1ccc([N+](=O)[O-])s1 , give the reported inhibition.
[reply] 15.2

[ask] For the compound shown here, CCN1C(=O)[C@@H]2[C@@H](c3ccc(-c4ccccc4)cc3)N3CCCC[C@@]3(C(=O)OC)[C@@H]2C1=O , give the reported inhibition.
[reply] -2.94

[ask] For the compound shown here, CC(C)N(Cc1ccccc1)C(=O)COC(=O)c1ccccc1SCC(=O)N1CCCC1 , give the reported inhibition.
[reply] 8.57

[ask] For the compound shown here, Cc1ccc(C)c(-c2nnc(NC(=O)CS(=O)(=O)c3ccccc3)o2)c1 , give the reported inhibition.
[reply] 9.44

[ask] For the compound shown here, CC(C)(C)c1cc(C(=O)N/N=C/c2ccc([N+](=O)[O-])s2)n[nH]1 , give the reported inhibition.
[reply] 37

[ask] For the compound shown here, COc1ccc(CC2c3cc(OC)c(OC)cc3CC[N+]2(C)CCC(=O)OCCCCCOC(=O)CC[N+]2(C)CCc3cc(OC)c(OC)cc3C2Cc2ccc(OC)c(OC)c2)cc1OC (stereo unspecified) , give the reported inhibition.
[reply] 11.1

[ask] For the compound shown here, COc1ccc(C(CNC(=O)c2ccc(NS(=O)(=O)c3ccc(F)c(C)c3)cc2)N(C)C)cc1 (stereo unspecified) , give the reported inhibition.
[reply] -9.5

[ask] For the compound shown here, CC(C)Oc1ccc(C(CC(=O)N2CCOCC2)C(C)C)cc1 (stereo unspecified) , give the reported inhibition.
[reply] 10.3

[ask] For the compound shown here, Cn1ccsc1=NC(=O)c1cc(S(=O)(=O)N2CCOCC2)ccc1Cl , give the reported inhibition.
[reply] -4.31

[ask] For the compound shown here, CCOc1ccc(CCNC(=O)CN2C(=O)NC3(CCc4ccccc43)C2=O)cc1OCC (stereo unspecified) , give the reported inhibition.
[reply] 1.55

[ask] For the compound shown here, CC(C)CCN1CCN=C1N(C)C , give the reported inhibition.
[reply] -2.91

[ask] For the compound shown here, CN1CCN(c2ccc(NC(=O)c3ccccc3)cc2)CC1 , give the reported inhibition.
[reply] 2.04

[ask] For the compound shown here, NC(=O)CSc1nnc(NC(=O)c2ccc3ccccc3c2)s1 , give the reported inhibition.
[reply] -7.13

[ask] For the compound shown here, O=[N+]([O-])c1ccccc1NCc1ccc(Cl)cc1 , give the reported inhibition.
[reply] 1.08

[ask] For the compound shown here, Cc1onc(-c2c(F)cccc2Cl)c1C(=O)N(C)CC(=O)Nc1cccc(F)c1 , give the reported inhibition.
[reply] 6.99

[ask] For the compound shown here, CCOc1ccc(NC(=O)CCC(=O)N/N=C/c2ccc([N+](=O)[O-])s2)cc1 , give the reported inhibition.
[reply] 5.9

[ask] For the compound shown here, O=C1CCCN1C(=O)COc1ccc([N+](=O)[O-])cc1 , give the reported inhibition.
[reply] -4.91

[ask] For the compound shown here, CCc1cccc(NC(=O)CCC(=O)O)c1 , give the reported inhibition.
[reply] 1.54
